Just for reference, paper PMC5403950 is where these values come from.

- Test system: P-gp (Homo sapiens)
- Procedure details: in vitro
- Condition label: Lucena 1 cells, probe doxorubicin (DOX) 5 μM
Outcome measure: activity at 14 µM (%)

# Compound, Outcome measure, Recorded value
data = [
    ("COc1cc([C@H]2OC[C@]3(OC(C)=O)[C@@H](c4ccc(O)c(OC)c4)OC[C@H]23)ccc1O [Compound 16, 1-acetoxy-(+)-pinoresinol]", "activity at 14 µM", 141),
]

----------
- Test system: P-gp (Homo sapiens, UniProt P08183)
- Sequence (P08183 whole entry): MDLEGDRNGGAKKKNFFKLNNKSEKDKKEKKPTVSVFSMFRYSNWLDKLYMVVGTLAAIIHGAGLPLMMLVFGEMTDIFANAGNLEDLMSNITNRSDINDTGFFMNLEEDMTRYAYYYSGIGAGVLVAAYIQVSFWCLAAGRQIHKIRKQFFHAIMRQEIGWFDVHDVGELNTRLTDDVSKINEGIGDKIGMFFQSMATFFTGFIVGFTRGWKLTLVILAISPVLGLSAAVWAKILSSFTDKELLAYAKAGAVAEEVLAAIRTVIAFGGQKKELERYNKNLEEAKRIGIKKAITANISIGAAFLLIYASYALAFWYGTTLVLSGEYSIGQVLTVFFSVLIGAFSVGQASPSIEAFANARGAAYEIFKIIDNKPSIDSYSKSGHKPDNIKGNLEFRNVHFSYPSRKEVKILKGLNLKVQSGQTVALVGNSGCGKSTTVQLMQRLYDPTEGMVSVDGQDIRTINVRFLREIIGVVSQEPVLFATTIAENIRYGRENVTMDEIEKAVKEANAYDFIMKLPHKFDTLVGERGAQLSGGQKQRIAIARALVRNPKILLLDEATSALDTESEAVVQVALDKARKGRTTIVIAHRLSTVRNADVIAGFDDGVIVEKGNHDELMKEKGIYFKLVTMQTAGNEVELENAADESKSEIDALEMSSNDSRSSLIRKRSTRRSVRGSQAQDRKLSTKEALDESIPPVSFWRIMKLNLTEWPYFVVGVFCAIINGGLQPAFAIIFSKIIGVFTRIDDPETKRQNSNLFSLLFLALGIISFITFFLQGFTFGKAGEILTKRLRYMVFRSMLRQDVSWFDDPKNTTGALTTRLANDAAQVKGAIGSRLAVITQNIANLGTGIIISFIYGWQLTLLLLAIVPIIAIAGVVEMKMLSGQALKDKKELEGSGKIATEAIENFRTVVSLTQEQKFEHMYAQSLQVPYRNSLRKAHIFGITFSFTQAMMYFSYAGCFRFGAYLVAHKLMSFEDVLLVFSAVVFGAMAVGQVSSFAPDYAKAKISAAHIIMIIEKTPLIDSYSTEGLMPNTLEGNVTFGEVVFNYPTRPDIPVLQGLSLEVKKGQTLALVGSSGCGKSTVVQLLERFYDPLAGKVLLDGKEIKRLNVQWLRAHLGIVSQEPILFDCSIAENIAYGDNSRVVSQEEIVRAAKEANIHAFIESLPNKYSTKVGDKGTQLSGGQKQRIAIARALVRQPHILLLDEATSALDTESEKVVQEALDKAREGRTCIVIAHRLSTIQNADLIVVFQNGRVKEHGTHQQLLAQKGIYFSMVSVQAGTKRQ
- Procedure details: in vitro
- Condition label: Lucena 1 cells, probe doxorubicin (DOX) 5 μM

# Compound, Test system, activity at 0.87 µM / %
measured = [
    ("COc1cc([C@H]2OC[C@]3(OC(C)=O)[C@@H](c4ccc(O)c(OC)c4)OC[C@H]23)ccc1O [Compound 16, 1-acetoxy-(+)-pinoresinol]", "P-gp (Homo sapiens, UniProt P08183)", 62),
]
